Origin of measurements: PubChem BioAssay AID628

- Assayed System: Muscarinic acetylcholine receptor M1 (Rattus norvegicus) (UniProt P08482)
- Sequence (P08482 whole entry, looked up): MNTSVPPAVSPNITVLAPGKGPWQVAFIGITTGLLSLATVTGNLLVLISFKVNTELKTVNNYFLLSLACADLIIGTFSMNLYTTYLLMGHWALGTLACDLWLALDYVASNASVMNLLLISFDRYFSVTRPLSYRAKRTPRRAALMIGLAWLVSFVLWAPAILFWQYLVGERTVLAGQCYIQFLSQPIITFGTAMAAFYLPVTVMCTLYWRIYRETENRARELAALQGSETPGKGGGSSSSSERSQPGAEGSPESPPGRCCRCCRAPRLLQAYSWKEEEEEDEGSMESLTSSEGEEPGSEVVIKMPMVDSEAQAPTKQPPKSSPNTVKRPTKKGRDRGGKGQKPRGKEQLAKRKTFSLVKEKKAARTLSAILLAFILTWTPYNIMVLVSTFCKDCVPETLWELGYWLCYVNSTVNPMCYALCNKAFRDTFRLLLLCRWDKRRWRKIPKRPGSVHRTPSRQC
- Protocol Details: antagonists of rat M1 muscarinic receptor (AID 628)
- Conditions Used: CHO-M1 cells, Fluo-4 calcium, ACh EC80 antagonist mode; at 10 µM
In all, about 64,000 compounds went through this assay and about 2,200 (3.4%) were called active.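 Rule for the calls: active = calcium fluorescence response, raw or row-and-column corrected B-score, differing from the plate sample mean either way at a set confidence level, mostly lower; inactive = the rest.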 The entries come from a sample that favours actives as a whole.
// classify into active, inactive

>  <Compound>
COc1cc(-c2nc(S(=O)(=O)c3ccc(Cl)cc3)c(N(C)C)o2)cc(OC)c1OC

>  <Group Label>
inactive

$$$$
>  <Compound>
CCN1C(=O)/C(=C2\SC(N3CCCCC3)=NC2=O)c2ccccc21

>  <Group Label>
active

$$$$
>  <Compound>
COCCNC(=O)C(C#N)c1nc2ccccc2nc1N1CCN(Cc2ccc3c(c2)OCO3)CC1 (stereo not given)

>  <Group Label>
inactive

$$$$
>  <Compound>
Cc1cc(NC(=O)CSCc2nc(-c3cccc(Cl)c3)oc2C)no1

>  <Group Label>
inactive

$$$$
>  <Compound>
COc1cc(-c2nn3c(-c4cccc(C)c4)nnc3s2)cc(OC)c1OC

>  <Group Label>
inactive

$$$$
>  <Compound>
CCOC(=O)N1CCC(NC(=O)COc2cc(=O)n(C)c3ccccc23)CC1

>  <Group Label>
inactive

$$$$

GET /call?item= CCN1C(=O)/C(=C\N2CCN(c3cccc(Cl)c3)CC2)SC1=S returns the recorded outcome of this test.
inactive

Called result for Cc1ccsc1-c1nc(CSCC(=O)NCCN2CCCC2)c(C)o1
active

Name the outcome recorded for c1ccc(-c2cc(-c3nnc4sc(-c5ccccn5)nn34)[nH]n2)cc1 in the assay.
active

Recorded test call requested for CCOC(=O)C1(C(F)(F)F)N=C(N(C)C)OC(N(C)C)=N1
inactive
